Test system: S pyogenes C203
test-method-notes: Antibacterial microtitration MIC, S pyogenes C203
Type: cell-based
condition-context: Gram Positive Bacteria; strain C203; read-out: Minimum Inhibitory Concentrations S pyogenes C203
reported-property: MIC
Reply with a number, then the unit it belongs to.

Find the recorded MIC belonging to Cc1c(N2C[C@H](CNCCC#N)[C@@H](C)C2)c(F)cc2c(=O)n(N)c(=O)n(C3CC3)c12 (single isomer, unassigned) and report it.
0.125 µg/mL

Reported MIC, compound Cc1c(N2CC[C@@H]([C@@H](N)CC#N)C2)c(F)cc2c(=O)[nH]c(=O)n(C3CC3)c12 (single isomer, unassigned) [drawing 408] : ____
0.125 µg/mL

What does the record list as MIC for Cc1c(N2CC[C@@H](C(NCCC#N)c3ncco3)C2)c(F)cc2c(=O)n(N)c(=O)n(C3CC3)c12 (some centres unmarked) [drawing 416] ?
8 µg/mL

So what's the measured MIC for this one? COc1c(N2CCC(C(N)CC#N)C2)c(F)cc2c(=O)n(N)c(=O)n(C3CC3)c12 (centres unmarked) [drawing 410]
0.5 µg/mL

Quick one: MIC for COc1c(N2CC[C@@H]([C@H](C)NCCC#N)C2)c(F)cc2c(=O)n(N)c(=O)n(C3CC3)c12 (single isomer, unassigned) [drawing 417] ?
0.125 µg/mL
